Examples of compounds with documented CC50 follow.
# Test system: SW-620 (Colon cancer)
# PROCEDURE SUMMARY: NCI-60 screen (SRB, 48 h)
# MEASUREMENT CONTEXT: Homo sapiens, SW-620, read-out: LC50
The answer consists of two parts: a number and, after it, its unit.

Below, 3 compounds whose answers are already recorded.
* C[C@H]1[C@H](C)CC[C@]2(CO)CC[C@]3(C)C(=CC[C@@H]4[C@@]5(C)CCCNC(C)(C)[C@@H]5CC[C@]43C)[C@H]12 | 7.03 µM
* CC1(C)CC[C@]23CC[C@]4(C)[C@H](CC[C@@H]5[C@@]6(C)CCCNC(C)(C)[C@@H]6CC[C@]54C)[C@H]2[C@H]1OC3 | 6.95 µM
* Cc1ccc(S(=O)(=O)OC[C@@]2(C)CC[C@]3(C)CC[C@]4(C)C(=C3C2)C=C[C@@H]2[C@@]3(C)CCCNC(C)(C)[C@@H]3CC[C@]24C)cc1 | 7.04 µM

Next up:
Input: Please look up its CC50: C=C(C)[C@@H]1CC[C@]2(C)[C@H](C=CC3=C4C[C@@](C)(CO)CC[C@]4(C)CC[C@]32C)[C@@]1(C)CCCN
Output: 5.93 µM

###

Readings of CC50 for the listed molecules
# Tested on: panel of approximately 60 cancer cell lines
# PROCEDURE SUMMARY: NCI-60 screen (SRB, 48 h), full panel
# MEASUREMENT CONTEXT: Homo sapiens, read-out: LC50 MG_MID60, average over all cell lines
Report the figure in µM without appending any unit label.

Guide cases for CC50, answers given:
• C[C@H]1[C@H](C)CC[C@]2(C(=O)Nc3ccc4ncccc4c3)CC[C@]3(C)C(=CC[C@@H]4[C@@]5(C)CCCNC(C)(C)[C@@H]5CC[C@]43C)[C@H]12 [Compound 14] = 6.52
• C[C@H]1[C@H](C)CC[C@]2(CO)CC[C@]3(C)C(=CC[C@@H]4[C@@]5(C)CCCNC(C)(C)[C@@H]5CC[C@]43C)[C@H]12 [Compound 4, azepanouvaol] = 7.64

Now look at this one.
Input: What value of CC50 has been reported for the following molecule? CC1(C)CC[C@]23CC[C@]4(C)[C@H](CC[C@@H]5[C@@]6(C)CCCNC(C)(C)[C@@H]6CC[C@]54C)[C@H]2[C@H]1OC3 [Compound 7, Azepanoallobetulin]
Output: 17.2

###

# Tested on: SF-268 (CNS cancer)
# PROCEDURE SUMMARY: NCI-60 screen (SRB, 48 h)
# MEASUREMENT CONTEXT: Homo sapiens, SF-268
Entries and their GI50
Entry rule: numbers only, all in nM.

Worked examples, 2 molecules total:
* CC(C)=C1CCC=C2CC[C@]3(C)[C@H](CC[C@@H]4[C@@]5(C)CCCNC(C)(C)[C@@H]5CC[C@]43C)[C@H]21 [Compound 9] | 1970
* Cc1ccc(S(=O)(=O)OC[C@@]2(C)CC[C@]3(C)CC[C@]4(C)C(=C3C2)C=C[C@@H]2[C@@]3(C)CCCNC(C)(C)[C@@H]3CC[C@]24C)cc1 [Compound 16] | 1950

Turning now to a further molecule:
Input: Look up GI50 for this molecule: CC1(C)CC[C@]23CC[C@]4(C)[C@H](CC[C@@H]5[C@@]6(C)CCCNC(C)(C)[C@@H]6CC[C@]54C)[C@H]2[C@H]1OC3 [Compound 7, Azepanoallobetulin]
Output: 2040

###

Recorded GI50 values for a group of compounds are listed next.
# System: BT-549 (Breast cancer)
# PROCEDURE SUMMARY: NCI-60 screen (SRB, 48 h)
# Assay type: cell-based
# MEASUREMENT CONTEXT: Homo sapiens, BT-549

Input: May I ask what GI50 has been recorded for Cc1ccc(S(=O)(=O)OC[C@]23CCC(C)(C)C[C@H]2C2=CC[C@@H]4[C@@]5(C)CCCNC(C)(C)[C@@H]5CC[C@@]4(C)[C@]2(C)CC3)cc1 ?
Output: 1900 nM

Input: I am curious: what GI50 value has been reported for C=C(C)[C@@H]1CC[C@]2(C(=O)N[C@H](CO)Cc3ccccc3)CC[C@]3(C)[C@H](CC[C@@H]4[C@@]5(C)CCCNC(C)(C)[C@@H]5CC[C@]43C)[C@@H]12 ?
Output: 1690 nM

Input: Which GI50 value is on record for C=C(C)C1CCC2(CO)CCC3(C)C(CCC4C5(C)CCCNC(C)(C)C5CCC43C)C12 (stereo not drawn) ?
Output: 1790 nM

###

# Tested on: panel of approximately 60 cancer cell lines
# PROCEDURE SUMMARY: NCI-60 screen (SRB, 48 h), full panel
# MEASUREMENT CONTEXT: Homo sapiens, read-out: LC50 MG_MID60, average over all cell lines
MEASURE NAME: CC50 (µM)
# output: bare number, implied unit µM

Below are worked cases with known answers.
* C=C(C)[C@@H]1CC[C@]2(COS(=O)(=O)c3ccc(C)cc3)CC[C@]3(C)[C@@H](CC[C@@H]4[C@@]5(C)CCCNC(C)(C)[C@@H]5CC[C@]43C)[C@@H]12 [Compound 12] | 5.84
* CC1(C)CC[C@]2(CO)CC[C@]3(C)C(=CC[C@@H]4[C@@]5(C)CCCNC(C)(C)[C@@H]5CC[C@]43C)[C@@H]2C1 [Compound 3, azepanoerythrodiol] | 32

Could you now look at the following molecule, please?
Input: Which measured CC50 value corresponds to C=C(C)[C@@H]1CC[C@]2(C)[C@H](C=CC3=C4C[C@@](C)(CO)CC[C@]4(C)CC[C@]32C)[C@@]1(C)CCCN [Compound 20] ?
Output: 17.3
